- Test system: P388 lymphocytic leukemia cell line
- Format: cell-based
- applied_conditions: murine P388 lymphocytic leukemia cell line
Structures can show the parent of a compound that is named as a salt.
observed_property: Leukemia P388 ED50 (µg/mL)

compound	target_or_system	scale_unit	measured_number
COc1ccc(/C=C\c2cc(OC)c3c(c2)OCO3)cc1NC(=O)[C@@H](N)CC(=O)[O-].[Na+] [Compound 11]	P388 lymphocytic leukemia cell line	µg/mL	0.361
COc1ccc(/C=C\c2cc(OC)c3c(c2)OCO3)cc1NC(=O)[C@H](C)[C@@H](OC)[C@@H]1CCCN1 [Compound 14, TFA salt]	P388 lymphocytic leukemia cell line	µg/mL	0.0263

These entries and their values trace back to patent US20090221666A1.
